- Tested on: OVCAR-5 ovarian
- Assay protocol: NCI-60 one-dose screen, 48 h
- Conditions: 10 µM unless noted
Compounds without any hit were thinned out: in the full panel of roughly 83,000, 20% have a hit. Activity calls are given as the source filed them. Rule for the calls: active = growth percent below 10; inactive = the rest. Where a SMILES comes first, the peptide text is derived from it. [ ]: non-standard residue; d: D form. ξ: configuration not given here. ξD = NC(CC(=O)O)C(=O)O
A correct response names exactly one class from active, inactive

{"Compound": "Cc1cc(C(=C2C=CC(=Nc3ccccc3)C=C2)c2ccc(Nc3ccccc3)cc2)ccc1N", "Category": "active"}
{"Compound": "CN=C(N)N/N=C(\\c1ccccc1)c1ccc(Br)cc1", "Category": "inactive"}
{"Compound": "CN(C)c1ccc(/C=C/c2sc3ccc4ccccc4c3[n+]2C)cc1", "Category": "active"}
{"Compound": "CC(O)C(O)C(O)C(O)C(O)C(=O)NNc1ccccc1 (stereo unspecified)", "Category": "inactive"}
{"Compound": "S=C=Nc1ccc(N2CCOCC2)cc1", "Category": "inactive"}
{"Compound": "NC(=S)N/N=C\\c1nccc2c(N)cccc12", "Category": "inactive"}
{"Compound": "CCCCCCCCCCCC[N+]1(CCCCCCCCCCCC)CCCC(C)C1 (stereo unspecified)", "Category": "active"}
{"Compound": "O=[N+]([O-])c1ccc([I+]c2ccccc2)cc1", "Category": "active"}

INPUT: Entry NCC(=O)NC(CC(=O)O)C(=O)O (stereo unspecified) (H-Gly-[ξD]-OH) : call = ?
OUTPUT: inactive

INPUT: Entry `C/C=C/c1cc2c(c(=O)o1)C(=O)[C@@H](O)[C@H](C)O2` : call = ?
OUTPUT: inactive

INPUT: Entry `Cc1oc2c(C)c3oc(=O)cc(C)c3cc2c1CCl` : call = ?
OUTPUT: inactive

---

- Tested on: SK-OV-3 ovarian
- Assay protocol: NCI-60 one-dose screen, 48 h
- Conditions: 10 µM unless noted
The panel holds about 83,000 compounds, 20% with a hit somewhere; the sample as a whole holds those more often. The source made the active and inactive calls. The calls were made as follows: active = growth percent below 10; inactive = the rest.
A correct response names exactly one class from true (1) (active), false (0) (inactive)

INPUT: Entry `Oc1ccc2ccccc2c1N=Nc1nccs1` : call = ?
OUTPUT: false (0)

INPUT: Entry CCOc1ccc2c(c1)/C(=C\C=C\C1CC(C)C3CC(OCC)CCC3N1CC)CC(C)N2CC (stereo unspecified) : call = ?
OUTPUT: false (0)

INPUT: Entry `COC(=O)c1nc(=S)[nH]c(C(=O)OC)c1C(=O)c1ccc(Cl)c(Cl)c1` : call = ?
OUTPUT: false (0)

INPUT: Entry `Oc1cc(Cl)ccc1Cc1ccc(Cl)cc1O` : call = ?
OUTPUT: false (0)

---

- Test system: SK-MEL-2 melanoma
- Assay protocol: NCI-60 one-dose screen, 48 h (100 = growth as untreated, 0 = no growth, -100 = all killed)
- Conditions: 10 µM unless noted
Compounds without any hit were thinned out: in the full panel of roughly 83,000, 20% have a hit.
Items are presented alongside their recorded growth.
A number alone suffices; assume %.

Known growth results, listed for orientation:
{"Molecule": "NC(CS/C(Cl)=C/Cl)C(=O)O (stereo not drawn)", "Units label": "%", "growth": 53.7}
{"Molecule": "C/C(=N\\NC(=S)N1CC2CCC(CC2)C1)c1ccccn1", "Units label": "%", "growth": 13.7}
{"Molecule": "OC(c1cc(C23CC4CC(CC(C4)C2)C3)nc2c(Cl)cc(Cl)cc12)C1CCCCN1 (stereo not drawn)", "Units label": "%", "growth": -73.5}
{"Molecule": "Cc1onc(-c2ccccc2)c1C(=O)N/N=C/c1cc(Cl)cc(Cl)c1O", "Units label": "%", "growth": 37.7}
{"Molecule": "CCC1C[N+]2=C(c3cc(OC)c(OC)cc3CC2)c2c1cc1n2CCc2cc(OC)c(OC)cc2-1 (stereo not drawn)", "Units label": "%", "growth": -1.15}

INPUT: What measured growth goes with `O/N=C1\c2ccccc2-c2ccc(F)cc21` ?
OUTPUT: 97.5

INPUT: What measured growth goes with COC1CC(C)C(OC)c2cc(O)cc(c2O)NC(=O)/C(C)=C/C=C\C(C)C(OC(N)=O)/C(C)=C\C(C)C1OC (stereo not drawn) ?
OUTPUT: 39.4

INPUT: What measured growth goes with `O=C(O)c1cccc2cccc(-c3c4ccc(=O)c(O)c-4oc4c(O)c(O)ccc34)c12` ?
OUTPUT: 96.8

INPUT: What measured growth goes with `Nc1ccc(-c2ccc(N)c(S(=O)(=O)O)c2)cc1S(=O)(=O)O` ?
OUTPUT: 127

---

- Test system: NCI-H322M lung
- Assay protocol: NCI-60 one-dose screen, 48 h
- Conditions: 10 µM unless noted
About 83,000 compounds went through this panel and 20% of them were active in at least one assay; those are over-represented in the sample as a whole. Activity calls are given as the source filed them. Rule for the calls: active = growth percent below 10; inactive = the rest.
A correct response names exactly one class from active, inactive

Answered examples (4):
{"Compound": "COc1ccc2nc3cc(Cl)ccc3c(NCCCCCN3CCCCC3)c2c1", "Category": "active"}
{"Compound": "O=C1CSC(=S)N1Cc1cccnc1", "Category": "inactive"}
{"Compound": "S=c1[nH]c2cc(Cl)ccc2s1", "Category": "inactive"}
{"Compound": "CCNc1nnnn1CC", "Category": "inactive"}

INPUT: Entry `O=C(NNc1ccccc1)OCc1ccccc1` : call = ?
OUTPUT: inactive

INPUT: Entry `CN(C)c1ccc(/C=C/c2ccnc3ccccc23)cc1` : call = ?
OUTPUT: inactive

---

Items are presented alongside their recorded growth.
- Tested on: MALME-3M melanoma
- Assay protocol: NCI-60 one-dose screen, 48 h (100 = growth as untreated, 0 = no growth, -100 = all killed)
- Conditions: 10 µM unless noted
About 83,000 compounds went through this panel and 20% of them were active in at least one assay; those are over-represented in the sample as a whole.
A number alone suffices; assume %.

{"Compound": "CCCCCCCCc1cc(Cl)c(O)c(Cl)c1", "Units label": "%", "Result": 100}
{"Compound": "CC(C)=C1C=C2CC[C@@H]3[C@](C)(CCC[C@@]3(C)C(=O)O)[C@H]2CC1", "Units label": "%", "Result": 91.3}
{"Compound": "CCOc1cc(F)c([N+](=O)[O-])cc1[N+](=O)[O-]", "Units label": "%", "Result": -19.2}
{"Compound": "CC(=O)OC1CC2CCC1(C)C2(C)C (centres undefined)", "Units label": "%", "Result": 98.7}

INPUT: What measured growth goes with `Cc1ccc(/C=C2\CNC/C(=C\c3ccc(C)cc3)C2=O)cc1` ?
OUTPUT: 29.4

INPUT: What measured growth goes with `O/N=C1\c2ccccc2-c2ccc(F)cc21` ?
OUTPUT: 114

INPUT: What measured growth goes with `Nc1cc(-c2ccccc2)ccc1O` ?
OUTPUT: 121

INPUT: What measured growth goes with `O=C(O)c1ccc2c(c1)C(=O)c1ccccc1C2=O` ?
OUTPUT: 102

INPUT: What measured growth goes with `C/C(=N/NC(N)=S)c1ccc(C)cc1` ?
OUTPUT: 102

---

- Test system: M14 melanoma
- Assay protocol: NCI-60 one-dose screen, 48 h (100 = growth as untreated, 0 = no growth, -100 = all killed)
- Conditions: 10 µM unless noted
About 83,000 compounds went through this panel and 20% of them were active in at least one assay; those are over-represented in the sample as a whole. Where a SMILES comes first, the peptide text is derived from it. [ ]: non-standard residue; d: D form. ξ: configuration not given here. ξD = NC(CC(=O)O)C(=O)O
Assay metric: growth (%)
A number alone suffices; assume %.

INPUT: Lab request: please report growth under test system M14 melanoma for `CCCCCCCCCCCC[n+]1ccc(CCCCCCCCC)cc1`
OUTPUT: -82.6

INPUT: Lab request: please report growth under test system M14 melanoma for `COC(=O)[C@]1(C)CCC[C@]2(C)c3ccc(C(C)C)cc3C(=O)[C@@H](Br)[C@@H]12`
OUTPUT: 90.6

INPUT: Lab request: please report growth under test system M14 melanoma for OC(c1cc(C23CC4CC(CC(C4)C2)C3)nc2c(Cl)cc(Cl)cc12)C1CCCCN1 (centres undefined)
OUTPUT: -85.6

INPUT: Lab request: please report growth under test system M14 melanoma for NCC(=O)NC(CC(=O)O)C(=O)O (centres undefined) (H-Gly-[ξD]-OH)
OUTPUT: 104

INPUT: Lab request: please report growth under test system M14 melanoma for `NC(=S)N/N=C/c1ncccc1O`
OUTPUT: -56.2

---

- System: NCI-H460 lung
- Assay protocol: NCI-60 one-dose screen, 48 h (100 = growth as untreated, 0 = no growth, -100 = all killed)
- Conditions: 10 µM unless noted
Compounds without any hit were thinned out: in the full panel of roughly 83,000, 20% have a hit. Activity calls are given as the source filed them. The calls were made as follows: active = growth percent below 10; inactive = the rest.
Items are presented alongside their recorded growth.

Known growth results, listed for orientation:
{"Molecule": "O=C(NNc1ccccc1)OCc1ccccc1", "growth": "79.5% (inactive)"}
{"Molecule": "CCC(C)C(N)C(=O)NC(CC(N)=O)C(=O)NC(CC(C)C)C(=O)NC(CCCCN)C(=O)NC(C)C(=O)NC(CC(C)C)C(=O)NC(C)C(=O)NC(C)C(=O)NC(CC(C)C)C(=O)NC(C)C(=O)NC(CCCCN)C(=O)NC(CCCCN)C(=O)NC(C(=O)NC(CC(C)C)C(N)=O)C(C)CC (centres undefined)", "growth": "79.3% (inactive)"}
{"Molecule": "OCCOSCCO", "growth": "111% (inactive)"}

INPUT: What measured growth goes with `N#C/C(=N\Nc1ccc(Cl)cc1)C(=O)C1CC1` ?
OUTPUT: 44.9% (inactive)
